Hey, just so you know, these numbers are from the supplement of paper PMC6555819.

- System: THRa:RXRa (NR concentration 90 nM, RXRa partner concentration 90 nM)
- measurement-protocol: PBM binding z-score (relative to random genomic background probes); higher = stronger binding; sequences stand for … in GC…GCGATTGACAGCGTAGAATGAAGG
property-measured: PBM binding z-score

[[record]]
sequence_input = "TAGCCTATGTCATTCAGGGGCCAGTATAGAAAGC"
experimental_target = "THRa:RXRa (NR concentration 90 nM, RXRa partner concentration 90 nM)"
result = 0.454

[[record]]
sequence_input = "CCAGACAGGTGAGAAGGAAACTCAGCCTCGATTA"
experimental_target = "THRa:RXRa (NR concentration 90 nM, RXRa partner concentration 90 nM)"
result = -0.307

[[record]]
sequence_input = "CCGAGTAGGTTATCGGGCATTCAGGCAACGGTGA"
experimental_target = "THRa:RXRa (NR concentration 90 nM, RXRa partner concentration 90 nM)"
result = 0.172

[[record]]
sequence_input = "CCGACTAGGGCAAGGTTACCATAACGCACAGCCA"
experimental_target = "THRa:RXRa (NR concentration 90 nM, RXRa partner concentration 90 nM)"
result = 1.23

[[record]]
sequence_input = "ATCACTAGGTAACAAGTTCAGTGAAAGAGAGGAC"
experimental_target = "THRa:RXRa (NR concentration 90 nM, RXRa partner concentration 90 nM)"
result = 1.54

[[record]]
sequence_input = "CAAACTAGGTAACAGAGGTCAAAGTCCGTGCGTA"
experimental_target = "THRa:RXRa (NR concentration 90 nM, RXRa partner concentration 90 nM)"
result = 4.1

[[record]]
sequence_input = "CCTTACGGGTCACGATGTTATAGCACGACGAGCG"
experimental_target = "THRa:RXRa (NR concentration 90 nM, RXRa partner concentration 90 nM)"
result = 2.88

[[record]]
sequence_input = "CCTTACGGCTCACTCCAGGTTATAGCATCGGAGT"
experimental_target = "THRa:RXRa (NR concentration 90 nM, RXRa partner concentration 90 nM)"
result = 1.15

[[record]]
sequence_input = "CCAGACAGATGAAAGGTAACTCAGTCTGGTACGC"
experimental_target = "THRa:RXRa (NR concentration 90 nM, RXRa partner concentration 90 nM)"
result = 0.108

[[record]]
sequence_input = "CCGAGTAGGTTAGGGGGCATTCAGGCAACGGTGA"
experimental_target = "THRa:RXRa (NR concentration 90 nM, RXRa partner concentration 90 nM)"
result = 2.4

[[record]]
sequence_input = "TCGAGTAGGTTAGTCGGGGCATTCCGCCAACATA"
experimental_target = "THRa:RXRa (NR concentration 90 nM, RXRa partner concentration 90 nM)"
result = 1.05

[[record]]
sequence_input = "CAAACTATGTCACCGGAAGGTCAAAGTCCGCATG"
experimental_target = "THRa:RXRa (NR concentration 90 nM, RXRa partner concentration 90 nM)"
result = 3.11

[[record]]
sequence_input = "ATCTCTAGGTAACCAAGTTCACTGAATGCCGAAC"
experimental_target = "THRa:RXRa (NR concentration 90 nM, RXRa partner concentration 90 nM)"
result = 2.34

[[record]]
sequence_input = "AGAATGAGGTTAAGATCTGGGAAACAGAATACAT"
experimental_target = "THRa:RXRa (NR concentration 90 nM, RXRa partner concentration 90 nM)"
result = 2.26

[[record]]
sequence_input = "CCTACTGGGCCAAAGGTCATCGATTCCAATGCTC"
experimental_target = "THRa:RXRa (NR concentration 90 nM, RXRa partner concentration 90 nM)"
result = 3.65

[[record]]
sequence_input = "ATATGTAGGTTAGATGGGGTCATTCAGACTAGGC"
experimental_target = "THRa:RXRa (NR concentration 90 nM, RXRa partner concentration 90 nM)"
result = 5.15

[[record]]
sequence_input = "CATACAGGGTCAGCTAGGCCAGAGTAGGGACGGC"
experimental_target = "THRa:RXRa (NR concentration 90 nM, RXRa partner concentration 90 nM)"
result = 3.1

[[record]]
sequence_input = "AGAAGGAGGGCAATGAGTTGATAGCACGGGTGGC"
experimental_target = "THRa:RXRa (NR concentration 90 nM, RXRa partner concentration 90 nM)"
result = 0.385

[[record]]
sequence_input = "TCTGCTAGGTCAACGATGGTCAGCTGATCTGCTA"
experimental_target = "THRa:RXRa (NR concentration 90 nM, RXRa partner concentration 90 nM)"
result = 2.99

[[record]]
sequence_input = "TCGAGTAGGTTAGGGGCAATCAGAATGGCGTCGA"
experimental_target = "THRa:RXRa (NR concentration 90 nM, RXRa partner concentration 90 nM)"
result = 0.826

[[record]]
sequence_input = "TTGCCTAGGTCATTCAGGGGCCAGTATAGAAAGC"
experimental_target = "THRa:RXRa (NR concentration 90 nM, RXRa partner concentration 90 nM)"
result = 3.48

[[record]]
sequence_input = "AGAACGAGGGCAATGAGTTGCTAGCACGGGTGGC"
experimental_target = "THRa:RXRa (NR concentration 90 nM, RXRa partner concentration 90 nM)"
result = 0.677

[[record]]
sequence_input = "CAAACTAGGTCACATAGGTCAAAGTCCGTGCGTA"
experimental_target = "THRa:RXRa (NR concentration 90 nM, RXRa partner concentration 90 nM)"
result = 4.09

[[record]]
sequence_input = "TCTTGTAGATCAACACGAGGTTAAGAAAGATCGA"
experimental_target = "THRa:RXRa (NR concentration 90 nM, RXRa partner concentration 90 nM)"
result = 1.57

[[record]]
sequence_input = "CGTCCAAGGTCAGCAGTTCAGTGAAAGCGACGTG"
experimental_target = "THRa:RXRa (NR concentration 90 nM, RXRa partner concentration 90 nM)"
result = 3.78

[[record]]
sequence_input = "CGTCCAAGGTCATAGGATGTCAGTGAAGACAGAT"
experimental_target = "THRa:RXRa (NR concentration 90 nM, RXRa partner concentration 90 nM)"
result = 4.28


----------
- Test system: PXR:RXRa (NR concentration 270 nM, RXRa partner concentration 90 nM)
- measurement-protocol: PBM binding z-score (relative to random genomic background probes); higher = stronger binding; sequences stand for … in GC…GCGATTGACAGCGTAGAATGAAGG
Measured PBM binding z-score of individual entries
property-measured: PBM binding z-score

[[record]]
sequence_input = "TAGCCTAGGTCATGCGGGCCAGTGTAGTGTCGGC"
recorded_number = 1.23

[[record]]
sequence_input = "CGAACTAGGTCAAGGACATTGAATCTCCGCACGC"
recorded_number = 1.56

[[record]]
sequence_input = "CTTCCAAGGTCATAGGAGGTCAGTGAAGACAGAT"
recorded_number = 6.93

[[record]]
sequence_input = "CGACCAAGGTCAATGCTAGGTCAGTGAAAGCATT"
recorded_number = 4.59

[[record]]
sequence_input = "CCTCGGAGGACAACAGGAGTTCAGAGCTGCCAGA"
recorded_number = 1.92

[[record]]
sequence_input = "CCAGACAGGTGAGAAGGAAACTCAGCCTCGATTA"
recorded_number = -0.158

[[record]]
sequence_input = "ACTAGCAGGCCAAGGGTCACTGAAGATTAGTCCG"
recorded_number = 3.39

[[record]]
sequence_input = "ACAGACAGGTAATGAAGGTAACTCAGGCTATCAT"
recorded_number = 0.147

[[record]]
sequence_input = "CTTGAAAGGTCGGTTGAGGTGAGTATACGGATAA"
recorded_number = 3.33

[[record]]
sequence_input = "ACATGTAGGTTAAGGGTCATTCAGGTTGGTTCGC"
recorded_number = 5.46

[[record]]
sequence_input = "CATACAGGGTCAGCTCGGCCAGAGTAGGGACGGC"
recorded_number = 2.02

[[record]]
sequence_input = "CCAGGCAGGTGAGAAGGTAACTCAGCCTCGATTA"
recorded_number = -0.256


----------
- Tested on: PXR homodimer (NR concentration 270 nM)
- measurement-protocol: PBM binding z-score (relative to random genomic background probes); higher = stronger binding; sequences stand for … in GC…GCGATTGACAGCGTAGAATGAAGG
Each entry gets Not met if its PBM binding z-score stays under 0.9, and Met if its PBM binding z-score is 0.9 or above.

[[record]]
sequence_input = "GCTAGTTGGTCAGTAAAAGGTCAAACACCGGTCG"
assigned_class = "Met"

[[record]]
sequence_input = "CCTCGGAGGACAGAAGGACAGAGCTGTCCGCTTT"
assigned_class = "Not met"

[[record]]
sequence_input = "ATCTCTAGGTAAAGATAGTTCAGTGTATGCAAAT"
assigned_class = "Not met"

[[record]]
sequence_input = "CGTACTAGGTCATCCAGGACAGTGAATACATTGA"
assigned_class = "Met"

[[record]]
sequence_input = "ACTATTAGTTGACGTAGGGCAACCGATACGACGC"
assigned_class = "Not met"

[[record]]
sequence_input = "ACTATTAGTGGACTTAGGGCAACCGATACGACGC"
assigned_class = "Not met"

[[record]]
sequence_input = "ATATGTAGGTTATCGGGTCATTCAGTTTGCGCAT"
assigned_class = "Met"

[[record]]
sequence_input = "CAAACTAGGTCAAGAGGTCAAAGTGCGCTTCCCG"
assigned_class = "Met"

[[record]]
sequence_input = "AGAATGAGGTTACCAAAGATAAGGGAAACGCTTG"
assigned_class = "Not met"

[[record]]
sequence_input = "CGTCCAAGGTCAAATGTCAGTGAAGAGATGACGG"
assigned_class = "Met"

[[record]]
sequence_input = "GCTATTAGTTGAATGGGCAACCGAATGATTCTCG"
assigned_class = "Not met"

[[record]]
sequence_input = "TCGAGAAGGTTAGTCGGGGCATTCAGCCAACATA"
assigned_class = "Not met"

